- Test system: P. falciparum 3D7 growth, pLDH absorbance
- ASSAY_REMARKS: blood-stage malaria parasite growth potency – strain 3D7, dose response (AID 2305)
pIC50: −log10 of the molar value.
MEASUREMENT_NAME: pIC50

>>> result("CCCC(C)n1ccc2c3c(N)nc(N)nc3ccc21 (stereo not given)")
7.30
>>> result("Fc1ccc2nc(-c3ccc(-c4ccc(CNCc5ccccc5)cc4)cc3)[nH]c2c1")
6.55
>>> result("CCN(CC)CCN(CCN(CC)CC)c1ccc2c(c1)Sc1c(Cl)ccc(Cl)c1S2")
6.06
>>> result("COc1ccc(NC(=O)N2CCCN(CCCCCNC(=O)/C=C/c3ccc(Cl)cc3)CC2)cc1Cl")
6.09
>>> result("CN(C)CCCc1cc(NC(=O)Nc2cccc(Cl)c2Cl)ccc1I")
6.27

###

- Tested on: P. falciparum 3D7 growth, pLDH absorbance
- ASSAY_REMARKS: blood-stage malaria parasite growth potency – strain 3D7, dose response (AID 2305)
pIC50: −log10 of the molar value.
Here, each record is paired with measured pIC50 data.
MEASUREMENT_NAME: pIC50

>>> result("CCN(CC)CCCNc1nccc(N2CCc3ncnc(Nc4ccc(OCc5cccc(F)c5)c(Cl)c4)c3C2)n1")
6.96
>>> result("O=C(c1cc(-c2ccco2)[nH]n1)N1CCN(S(=O)(=O)c2ccc(Cl)cc2)CC1")
6.44
>>> result("Cc1cc(N[C@@H](CC(C)C)C(=O)NCc2cccc(F)c2)nc(NCCc2ccc(F)cc2)n1")
5.83
>>> result("CCC(C)NC(=O)Nc1ccc(-c2cccc(-c3nc4ccccc4[nH]3)c2)cc1 (stereo unspecified)")
6.09
>>> result("O=C(NCc1cccc(F)c1)Nc1cccc(-c2cccc(-c3nc4ccccc4[nH]3)c2)c1")
6.41
>>> result("CCCc1cc(OC)c(C[C@@H]2c3cc(O)c(Cl)cc3CCN2C)cc1OC")
6.14
>>> result("CCCN(Cc1nnc(-c2cccs2)o1)C(=O)CSc1nnnn1-c1ccc(C)c(C)c1")
6.24
>>> result("c1cc(CN2CCN(CCN3CCOCC3)CC2)cc(-c2ccc(-c3nc4ccccc4[nH]3)cc2)c1")
6.89
>>> result("CCn1c(-c2nonc2N)nc2c(-c3cccc(NC(=O)Nc4ccc5c(c4)CCC5)c3)ncc(OCCCN)c21")
6.11
>>> result("COc1ccc(C(C(=O)NC2CCN(C[C@H](O)c3ccnc4ccc(OC)cc34)CC2)N2CCN(c3ccc(F)cc3)CC2)cc1 (stereo partly specified)")
6.68
>>> result("COc1ccc2nccc([C@@H](O)CN3CCC(NC(=O)Cc4cc5ccccc5s4)CC3)c2c1")
6.04
>>> result("CS(=O)(=O)CCN(CCS(C)(=O)=O)Cc1ccc(-c2ccc3ncnc(Nc4ccc(OCc5cccc(F)c5)c(Cl)c4)c3c2)o1")
5.99
>>> result("COc1c(C2CCN(CCCCNC(=O)c3cccc(-c4ccc(C(F)(F)F)cc4)c3)CC2)ccc2c1CCCC2")
6.11
>>> result("COc1ccc(CNCc2ccc(-c3ccc(-c4nc5ccc(C(F)(F)F)cc5[nH]4)s3)cc2)cc1")
6.77
>>> result("COC(=O)c1ccc2nc(-c3cc(OC)c(O)c(C(=O)NC4CCN(Cc5ccccc5)CC4)c3)[nH]c2c1")
5.93
>>> result("Cc1cc(N[C@@H](CC(C)C)C(=O)NCc2cccs2)nc(NCCc2cccs2)n1")
5.99

###

- System: P. falciparum 3D7 growth, pLDH absorbance
- ASSAY_REMARKS: blood-stage malaria parasite growth potency – strain 3D7, dose response (AID 2305)
MEASUREMENT_NAME: IC50 (µM)

>>> result("Cc1noc(-c2ccccc2)c1NC(=O)N1CCN(CCCCCCNC(=O)/C=C/c2ccc(Cl)c(Cl)c2)CC1")
0.88
>>> result("COc1ccc(CN2CCC2=O)c(OC)c1")
0.12
>>> result("Cc1sc2nc(CN3CCCC3)nc(-n3c(NCCO)nc4ccccc43)c2c1C")
1.24

###

Here, each record is paired with measured pIC50 data.
- System: P. falciparum 3D7 growth, pLDH absorbance
- ASSAY_REMARKS: blood-stage malaria parasite growth potency – strain 3D7, dose response (AID 2305)
pIC50: −log10 of the molar value.
MEASUREMENT_NAME: pIC50

>>> result("CCOc1ccc2c(NN=Cc3ccc(OC)c(OC)c3)cc(C)nc2c1")
6.15
>>> result("CC1CCC(C[C@@H](C(=O)N[C@H](C(=O)Nc2nccs2)[C@@H](C)O)[C@H](CCC(F)(F)F)N(O)C=O)CC1 (stereo partly specified)")
6.27
>>> result("O=C(Nc1ccc(Cl)c(C(F)(F)F)c1)c1ccc(C(=O)Nc2ccc(Cl)c(C(F)(F)F)c2)cc1")
6.00
>>> result("Nc1nc2c(ncn2OC[C@H]2COP(=O)(O)CO2)c(=O)[nH]1")
6.24
>>> result("C(=Cc1nc2ccccc2s1)c1ccc2c(c1)OCCO2")
6.41
>>> result("Cc1cccc2[nH]c(-c3ccc(-c4ccc(CNCc5cccc(N)c5)cc4)s3)nc12")
6.12
>>> result("COc1ccc(CCN2CCC(CN(C)Cc3cnn(-c4ccccc4)c3)CC2)cc1")
5.94
>>> result("CCc1cccc2c(C#N)cn(CC(=O)Nc3ccc(OC)cc3)c12")
6.11
>>> result("COc1ccc(N(c2nc(-c3cc(Cl)ccc3Cl)cs2)C2CCNCC2)cc1")
5.96
>>> result("Oc1cc2c(cc1CN1CCN(Cc3ccc(Cl)s3)CC1)CCC2")
6.21
>>> result("COCC(=O)N(Cc1cccc(-c2ccc(CNCCc3ccccc3)cc2)c1)C1CCN(Cc2ccccc2)CC1")
5.96
>>> result("COc1cccc(-c2cnc(N)c(-c3nc4ccc(C(F)(F)F)cc4[nH]3)c2)c1")
6.19
>>> result("O=C(Nc1ccc(S(=O)(=O)N2CCCCC2)cc1)c1cc(-c2ccccc2O)n[nH]1")
6.07
>>> result("O=S(=O)(NC1CCN(c2ccnc3cc(Cl)ccc23)C1)c1ccc(C(F)(F)F)cc1 (stereo unspecified)")
6.52
>>> result("c1ccc2c(c1)cc(CNCCCN1CCN(CCCNCc3cc4ccccc4c4ccccc34)CC1)c1ccccc12")
6.70
>>> result("COc1ccc(NC(=O)Nc2ccc(-c3ccc(-c4nc5ccccc5[nH]4)cc3)cc2)cc1")
6.29
>>> result("O=S(=O)(NCCN1CCCC1)c1cccc(-c2ccc(CNCc3ccccc3)cc2)c1")
6.00
>>> result("CN1CCC(Oc2ccc(CN3CC[C@H](NC(=O)c4ccc(F)c(F)c4)C3)c3ccccc23)C1 (stereo partly specified)")
5.97
>>> result("CN1CCN(Cc2nc(-c3ccc4c(Nc5ccc(Oc6ccccc6)cc5)ccnc4c3)cs2)CC1")
6.51
>>> result("CC(=O)N1c2ccccc2C(C)=CC1(C)C")
6.03
>>> result("CCN(CC)CCN(Cc1ccc(-c2ccc(C(F)(F)F)cc2)cc1)C(=O)Cn1c(CCc2cccc(F)c2F)nc(=O)c2ccc(C(F)(F)F)cc21")
6.11
>>> result("Cc1cc(C(=O)Nc2ccc3c(c2)CCN3C2CCN(Cc3ccc4nsnc4c3)C2)no1 (stereo unspecified)")
6.19
>>> result("O=C(/C=C/c1ccc(Cl)c(Cl)c1)NCCCCCN1CCC(NC(=O)Nc2ccc(F)c(Cl)c2)CC1")
6.21
>>> result("COc1cc(Br)c(NC(=O)Nc2ccc(C(F)(F)F)c(O[C@@H]3CCN(C)C3)c2)cc1OC")
6.20
>>> result("NC(=O)c1ccsc1NC(=O)CNC(c1ccc(F)cc1)c1cccs1 (stereo unspecified)")
6.02
>>> result("O=C(Nc1cccc(-c2cccc(-c3nc4ccc(F)cc4[nH]3)c2)c1)Nc1ccc(F)c(F)c1F")
7.05

###

- Test system: P. falciparum 3D7 growth, pLDH absorbance
- ASSAY_REMARKS: blood-stage malaria parasite growth potency – strain 3D7, dose response (AID 2305)
Here, each record is paired with measured IC50 data.
MEASUREMENT_NAME: IC50 (µM)

>>> result("Cc1cc(NC(=O)Nc2ccc(Oc3ccccc3)cc2)c2ccccc2n1")
0.84
>>> result("Cc1cc(NC(=O)Nc2ccc(I)c(OCCN(C)C)c2)ccc1Br")
0.62
>>> result("O=C(O)C[C@H](NC(=O)c1cc(-c2ccc3c(c2)OCO3)no1)C(=O)O (tested in a mixture with another compound)")
0.19
>>> result("COc1ccc(OCC(=O)Nc2cc(-c3nc4ccccc4[nH]3)ccc2Cl)cc1")
0.9
>>> result("FC(F)(F)c1cccc(Nc2nc3ccccc3nc2Nc2cccc(C(F)(F)F)c2)c1")
0.14

###

- Tested on: P. falciparum 3D7 growth, pLDH absorbance
- ASSAY_REMARKS: blood-stage malaria parasite growth potency – strain 3D7, dose response (AID 2305)
pIC50: −log10 of the molar value.
MEASUREMENT_NAME: pIC50

>>> result("COc1ccc(NC(=O)/C=C/c2ccc(-c3ccccc3)cc2)cc1N1CCN(C)CC1")
6.04
>>> result("c1ccc2cc3c(NCCN4CCOCC4)ccnc3cc2c1")
6.77
>>> result("CC(Sc1nc(-c2ccccc2)c(-c2ccccc2)o1)C(=O)NC1CC1 (centres undefined)")
6.08
>>> result("O=C(NC1CC1)c1ccc(N2CCN(Cc3ccc(Cl)cc3)CC2)nc1")
5.87
